Listed below: Hematic levels in the rat values for each entry.
test: Hematic levels in the rat (absorption by oral route); settings: 1 hour, 100 mg/kg as erythromycin, average, 100 mg/kg, 60 min
Could you give the number and then its unit, please?

Example entries begin here.
CC[C@H]1OC(=O)[C@H](C)[C@@H](O[C@H]2C[C@@](C)(OC)[C@@H](O)[C@H](C)O2)[C@H](C)[C@@H](O[C@@H]2O[C@H](C)C[C@H](N(C)C)[C@H]2O)[C@](C)(O)C[C@@H](C)C(=O)[C@H](C)[C@@H](O)[C@]1(C)O [RV01, erythromycin alpha-mercaptosuccinate] = 0.79 µg/mL
CC[C@H]1OC(=O)[C@H](C)[C@@H](O[C@H]2C[C@@](C)(OC)[C@@H](O)[C@H](C)O2)[C@H](C)[C@@H](O[C@@H]2O[C@H](C)C[C@H](N(C)C)[C@H]2O)[C@](C)(O)C[C@@H](C)C(=O)[C@H](C)[C@@H](O)[C@]1(C)O [RV04, erythromycin-S-carboxymethylcysteinate] = 0.71 µg/mL
CC[C@H]1OC(=O)[C@H](C)[C@@H](O[C@H]2C[C@@](C)(OC)[C@@H](O)[C@H](C)O2)[C@H](C)[C@@H](O[C@@H]2O[C@H](C)C[C@H](N(C)C)[C@H]2O)[C@](C)(O)C[C@@H](C)C(=O)[C@H](C)[C@@H](O)[C@]1(C)O [RV05, erythromycin-N-acetylcysteinate] = 0.83 µg/mL

Reported Hematic levels in the rat, compound CC[C@H]1OC(=O)[C@H](C)[C@@H](O[C@H]2C[C@@](C)(OC)[C@@H](O)[C@H](C)O2)[C@H](C)[C@@H](O[C@@H]2O[C@H](C)C[C@H](N(C)C)[C@H]2O)[C@](C)(O)C[C@@H](C)C(=O)[C@H](C)[C@@H](O)[C@]1(C)O [RV03, erythromycyn-thiazolidin-carboxylate] : ____ 0.71 µg/mL

// provenance: patent US4476120A
